- assay.text: chemical genetic growth profiling, strain panel (AID 1159580);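 also: tested at 20 µM; growth read once vehicle control cultures reached saturation at 30 °C; 1 = growth at the plate median or of vehicle wells; lower values mean less growth of the strain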
- details: S. cerevisiae deletion strains, growth OD, locus YAL026C, strain drs2, stronger effect = lower value
Out of some 5,500 compounds screened, about 2,000 (36%) were called active. Inconclusive results (about 18%) are left out. This is one part of the list.
Rule: normalized growth below 1 gives 1.0. Equal to or above 1 gives 0.0.

COc1ccc2cc([C@H](C)C(=O)O)ccc2c1
1.0
NC(=O)c1ccc[n+]([C@@H]2O[C@H](COP(=O)([O-])OP(=O)(O)OC[C@H]3O[C@@H](n4cnc5c(N)ncnc54)[C@H](O)[C@@H]3O)[C@@H](O)[C@H]2O)c1
0.0
COc1cc2c(cc1OC)Cc1cc(OC)c(OC)cc1Cc1cc(OC)c(OC)cc1C2
0.0
